# Tested on: NCI-H23 lung
# Assay comment: NCI-60 one-dose screen, 48 h
# Assay context: 10 µM unless noted
Compounds without any hit were thinned out: in the full panel of roughly 83,000, 20% have a hit. Activity calls are given as the source filed them. Rule for the calls: active = growth percent below 10; inactive = the rest. *1 amine or outer side, *2 acyl side, *3 side chain or, on linkers, in order; H or OH if unused. Where a SMILES comes first, the peptide text is derived from it. [ ]: non-standard residue; d: D form. The star is where a group is joined. X5 = CCC(=O)CC1CC(C)CC(C(=O)[*:2])N1[*:1]; X4 = CCCCCCCCC(C)C(=O)*; Aib = CC(C)(N)C(=O)O; X6 = CC(CN(C)CCO)N*
Choose the fitting class; nothing outside y = active, n = inactive is accepted.

How did this test come out for Cc1nn(CCO)c(C)c1N=[N+]([O-])c1c(C)nn(CCO)c1C ?
n

Hi, do you know how Oc1ccc(Cl)cc1C(c1cc(Cl)ccc1O)C(Cl)(Cl)Cl came out in this test?
y

What was the test verdict on O=C(Nc1ccc(Cl)c(Cl)c1)OCc1ccco1 ?
n

Any idea what this test logged for CCCCCC/C=C1\CCC(CN2CCCC2)C1=O (configuration not stated) ?
n

Give the logged outcome of this assay for the following compound: CCc1cnc2ccccc2c1/C=C/c1ccc(N(C)C)cc1
n

Test call, this compound: NC1=C(Br)C(=O)c2ncccc2C1=O
y

Please indicate how the test categorized CCCCCCCCCCCC[S+](C)CC(=O)[O-] (configuration not stated) .
n

For CCOC(=O)c1[nH]c(C#N)c(C(=O)OCC)c1C , what call appears in the results of this test?
n

What classification did O=C(Cc1nc2cc(Cl)c(Cl)cc2nc1CC(=O)c1ccccc1)c1ccccc1 end up with in this test?
n

Test call, this compound: CCCCCCCCCCCC[N+]1(CCCCCCCCCCCC)CCCC(C)C1 (configuration not stated)
y

Recorded test outcome, item O/N=C1\c2ccccc2-c2ccc(F)cc21
n

Test call, this compound: CCCCCCCCC(C)C(=O)N1CCCC1C(=O)N1C(CC(=O)CC)CC(C)CC1C(=O)NC(C)C(=O)NC(C)(C)C(=O)NC(C)(C)C(=O)NC(C(=O)NC(C)C(=O)NC(C)(C)C(=O)NC(C)(C)C(=O)NC(C)CN(C)CCO)C(C)CC (configuration not stated) (X4-P[X5]A[Aib][Aib]IA[Aib][Aib]-X6; configuration not given here)
n

* * *

# Test system: K-562 leukemia
# Assay comment: NCI-60 one-dose screen, 48 h
# Assay context: 10 µM unless noted
About 83,000 compounds went through this panel and 20% of them were active in at least one assay; those are over-represented in the sample as a whole. The source made the active and inactive calls. Rule for the calls: active = growth percent below 10; inactive = the rest.
Parameter call: string, one of Y (active), N (inactive)

Assay outcome for Cc1oc2c(C)c3oc(=O)cc(C)c3cc2c1CCl : what was it?
N

Recorded call for CN(C)c1ccc(/C=C/c2sc3ccc4ccccc4c3[n+]2C)cc1 ?
Y

Tell me the recorded outcome of this test for CC(=O)C1Cc2ccccc2C1=O (configuration not stated) .
N

How did this test come out for CCCCCCCCCCCC[n+]1ccccc1 (tested in a mixture with another compound) ?
Y

Tell me the assay call for NNc1ccc(Cl)cc1Cl please.
N

Identify the outcome logged in this assay for the compound shown: CC(C)N=C(N)/N=C(\N)Nc1ccc2ccc3ccccc3c2c1
Y

What did this assay record as the result for Cc1cc(=O)oc2cc(O)cc(O)c12 ?
N

Fill in: this test's call for c1ccc(C2NCCNC2c2ccccc2)cc1 (configuration not stated) is ___
N

Hi, sorry to bother you, what did the test record for CCC[CH2][Sn]1([CH2]CCC)[O]C2C(CO)OC(n3ccc(N)nc3=O)C2[O]1 (configuration not stated) ?
Y

What did this assay record as the result for CN(C)c1ccc(C(C#N)(c2ccccc2)c2ccc(N(C)C)cc2)cc1 ?
N

Just curious, what result did CCNc1nnnn1CC get here?
N

Given CC1(C)CCCC2=C1C(=O)N(SC(Cl)(Cl)Cl)C2=O , state the outcome it received in this test.
N

* * *

# Test system: RPMI-8226 leukemia
# Assay comment: NCI-60 one-dose screen, 48 h (100 = growth as untreated, 0 = no growth, -100 = all killed)
# Assay context: 10 µM unless noted
Compounds without any hit were thinned out: in the full panel of roughly 83,000, 20% have a hit.
Give Yes when the value for growth is at least 90%. Give No when it is less.

Identify whether the reported growth of the following compound is 90% or greater: CCCOS(=O)(=O)c1ccccc1
No

Reported growth reaches at least 90% for CC(=O)C1Cc2ccccc2C1=O (centres undefined) ?
Yes

Kindly determine if growth recorded for CC(C)(C)CC(C)(C)c1ccc(OCCOCCSC(=N)N)cc1 is above or exactly 90%.
No

Kindly determine if growth recorded for COc1cc(NCc2ccc3nc(N)nc(N)c3c2C)cc(OC)c1OC (tested in a mixture with another compound) is above or exactly 90%.
No

Quick check, growth >= 90%? COc1ccc(C(OCC2OC(n3ccc(NC(=O)c4ccccc4)nc3=O)C(O)C2O)(c2ccccc2)c2ccccc2)cc1 (centres undefined)
No

Is it the case that C/C(=N/NC(N)=S)c1ccc(C)cc1 has growth reaching or exceeding 90%?
No

Given the entry N#CC1c2ccccc2C=CN1C(=O)CCCl (centres undefined) , answer whether its growth meets or surpasses 90%.
No

Hello, I need to know if Oc1ccc2c(c1)CCc1ccccc1-2 has measured growth not below 90%. Thanks!
Yes

Exam item: decide whether the reported growth for CN(C)c1ccc(C(C#N)(c2ccccc2)c2ccc(N(C)C)cc2)cc1 is at least 90%.
No

Is it the case that COc1cc([C@@H]2c3cc4c(cc3[C@H](OC3OC5COC(c6ccccc6)OC5C(O)C3O)[C@H]3COC(=O)[C@H]23)OCO4)cc(OC)c1OC (some centres undefined) has growth reaching or exceeding 90%?
No

Reported growth at or above 90%? CCCCC(C=O)(C=C=C(C)C)CC (centres undefined)
Yes

Item NC(CS/C(Cl)=C/Cl)C(=O)O (centres undefined) with growth of 90% or above?
No

Answer whether growth of O=C(c1ccccc1)C(Br)C(Br)c1ccccc1 (centres undefined) is greater than or equal to 90%.
No

Decide: is the reported value of growth for OC(c1cc2ccc(C(F)(F)F)cc2c2cc(C(F)(F)F)ccc12)C1CCCCN1 (centres undefined) equal to or greater than 90%?
No

Say whether OC(CSc1ccccc1)CN1CCN(c2ccc(Cl)cc2)CC1 (centres undefined) shows growth of 90% or more.
No

API: above_or_equal(metric=growth, cutoff=90%) for item CC1CC(C)(C)OB(OC(C)CC(C)(C)OB2OC(C)CC(C)(C)O2)O1 (centres undefined)
Yes

Please indicate if the recorded growth for CC(C)c1ccc(C(=O)OC2CCCC2)cc1 meets or exceeds 90%.
Yes

Can O=C(O)c1cc2c(s1)C(=O)c1sccc1C2=O be said to have growth at or above 90%?
No

Would you say Oc1c(C(Nc2ccccc2)c2ccccc2)ccc2cccnc12 (centres undefined) shows growth at minimum 90%?
No

Is the recorded value of growth equal to or greater than 90% for this compound? O=C(CCl)N(c1ccccc1)c1ccccc1
Yes

Does the reported growth for COc1ccc(/C=C2/C(=O)ON=C2C)cc1 fall at or above the 90% mark?
Yes

Given the entry O=C(c1ccccc1)N(CCCl)C(=O)N(CCCl)C(=O)c1ccccc1 , answer whether its growth meets or surpasses 90%.
Yes

I'd appreciate it if you could say whether O=[N+]([O-])C=C(c1ccccc1)c1ccccc1 has growth at least equal to 90%.
No

Does the compound CCC(C)C(N)C(=O)NC(CC(N)=O)C(=O)NC(CC(C)C)C(=O)NC(CCCCN)C(=O)NC(C)C(=O)NC(CC(C)C)C(=O)NC(C)C(=O)NC(C)C(=O)NC(CC(C)C)C(=O)NC(C)C(=O)NC(CCCCN)C(=O)NC(CCCCN)C(=O)NC(C(=O)NC(CC(C)C)C(N)=O)C(C)CC (centres undefined) have recorded growth that is 90% or more?
No

Hello, I need to know if CC(/C=N/NC(N)=S)Cc1ccc(C(C)C)cc1 (centres undefined) has measured growth not below 90%. Thanks!
Yes

Say whether CSc1nc(C)c(C(=O)CCN2CCN(c3ccccn3)CC2)s1 shows growth of 90% or more.
No

Check if growth >= 90% (inclusive). Item: O=C1C=CC(=O)N1c1cccc2c1CCCC2
Yes

Form field: growth at least 90%? Entry: O=[N+]([O-])c1ccc(N2CCN(Cc3ccccc3)CC2)c2c1no[n+]2[O-]
No

Would you say COc1cc2c(c(OC)c1OC)-c1ccc(NCc3ccccc3)c(=O)cc1[C@@H](NC(C)=O)CC2 shows growth at minimum 90%?
No

Entry Cn1c(-c2ccccc2)c(/C=C/C2=[N+](C)c3ccccc3C2(C)C)c2ccccc21 : is its growth no less than 90%?
No

For this compound, is measured growth 90% or higher? C[n+]1ccccc1C[n+]1ccccc1
Yes

Would you say Cc1cccc2c(N)c3ccccc3nc12 shows growth at minimum 90%?
No

I'd appreciate it if you could say whether COc1cc(NC(=O)C2=C(C)NC(C)=C(C(=O)Nc3cc(OC)c(Cl)cc3OC)C2c2cccc([N+](=O)[O-])c2)c(OC)cc1Cl has growth at least equal to 90%.
No

Confirm if growth reported for the compound N#Cc1c2ccccc2nc2ccccc12 is 90% or above.
Yes

Could you tell me if the measured growth of CCCCCCC1N=C(N)N=C(N)N1c1cccc(Cl)c1 (centres undefined) reaches 90% or more?
No

Is growth at least 90%? Consider COC(=O)[C@]1(C)CCC[C@]2(C)c3ccc(C(C)C)cc3C(=O)[C@@H](Br)[C@@H]12
No

Determine whether measured growth meets or exceeds 90% for NC(=S)N/N=C\c1nccc2c(N)cccc12
No

Threshold query (growth >= 90%) on Nc1cccc2cccc([N+](=O)[O-])c12
Yes

Hello, I need to know if N#CC(=C1SCS1)[N+](=O)[O-] has measured growth not below 90%. Thanks!
No

Tell me whether growth is at least 90% here: Nc1nc(-c2ccccc2)nc(N)c1N=O
No

Does the compound CN(C)c1ccc(C(=C2C=CC(=[N+](C)C)C=C2)c2ccc(N(C)C)cc2)cc1 have recorded growth that is 90% or more?
No

Kindly determine if growth recorded for Cc1cc(N/N=C/c2ccccn2)nc2ccccc12 is above or exactly 90%.
No
